- System: Micrococcus luteus
- test details: Antimicrobial activity against Micrococcus luteus after 24 hrs by microdilution technique in high salt condition
- Type: functional
Where a SMILES comes first, the peptide text is derived from it. Bridges are numbered along the chain shown (N, C = ends).
endpoint label: MIC

- CC(C)C[C@H](NC(=O)[C@H](CS)NC(=O)[C@H](CCCCN)NC(=O)[C@H](C)NC(=O)[C@H](C)NC(=O)[C@H](CS)NC(=O)[C@H](C)NC(=O)[C@H](C)NC(=O)[C@@H](N)CC(=O)O)C(=O)N[C@@H](Cc1c[nH]c2ccccc12)C(=O)N[C@@H](CCCNC(=N)N)C(N)=O (H-DAACAAKCLWR-NH2): > 200 µg/mL
- CC(C)C[C@H](NC(=O)[C@@H]1CSSC[C@H](NC(=O)[C@H](C)NC(=O)[C@H](C)NC(=O)[C@@H](N)CCCCN)C(=O)N[C@@H](C)C(=O)N[C@@H](C)C(=O)N[C@@H](CCCCN)C(=O)N1)C(=O)N[C@@H](Cc1c[nH]c2ccccc12)C(=O)N[C@@H](CCCNC(=N)N)C(N)=O (H-KAACAAKCLWR-NH2; disulfide 4-8): 200 µg/mL
- CC(C)C[C@H](NC(=O)[C@@H]1CSSC[C@H](NC(=O)[C@H](C)NC(=O)[C@H](C)NC(=O)[C@@H](N)CC(=O)O)C(=O)N[C@@H](C)C(=O)N[C@@H](C)C(=O)N[C@@H](CCCCN)C(=O)N1)C(=O)N[C@@H](Cc1c[nH]c2ccccc12)C(=O)N[C@@H](CCCNC(=N)N)C(N)=O (H-DAACAAKCLWR-NH2; disulfide 4-8): > 200 µg/mL
- CC(C)C[C@H](NC(=O)[C@H](CS)NC(=O)[C@H](Cc1cnc[nH]1)NC(=O)[C@H](C)NC(=O)[C@H](C)NC(=O)[C@H](CS)NC(=O)[C@H](C)NC(=O)[C@H](C)NC(=O)[C@@H](N)CCCCN)C(=O)N[C@@H](Cc1c[nH]c2ccccc12)C(=O)N[C@@H](CCCNC(=N)N)C(N)=O (H-KAACAAHCLWR-NH2): > 200 µg/mL
- CC(C)C[C@H](NC(=O)[C@@H]1CSSC[C@H](NC(=O)[C@H](C)NC(=O)[C@H](C)NC(=O)[C@@H](N)CC(=O)O)C(=O)N[C@@H](C)C(=O)N[C@@H](C)C(=O)N[C@@H](Cc2cnc[nH]2)C(=O)N1)C(=O)N[C@@H](Cc1c[nH]c2ccccc12)C(=O)N[C@@H](CCCNC(=N)N)C(N)=O (H-DAACAAHCLWR-NH2; disulfide 4-8): > 200 µg/mL
- CC(C)C[C@H](NC(=O)[C@H](CS)NC(=O)[C@H](Cc1cnc[nH]1)NC(=O)[C@H](C)NC(=O)[C@H](C)NC(=O)[C@H](CS)NC(=O)[C@H](C)NC(=O)[C@H](C)NC(=O)[C@@H](N)CC(=O)O)C(=O)N[C@@H](Cc1c[nH]c2ccccc12)C(=O)N[C@@H](CCCNC(=N)N)C(N)=O (H-DAACAAHCLWR-NH2): > 200 µg/mL
- CC(C)C[C@H](NC(=O)[C@H](CS)NC(=O)[C@H](CCCCN)NC(=O)[C@H](C)NC(=O)[C@H](C)NC(=O)[C@H](CS)NC(=O)[C@H](C)NC(=O)[C@H](C)NC(=O)[C@@H](N)CCCCN)C(=O)N[C@@H](Cc1c[nH]c2ccccc12)C(=O)N[C@@H](CCCNC(=N)N)C(N)=O (H-KAACAAKCLWR-NH2): 200 µg/mL
- CC(C)C[C@H](NC(=O)[C@@H]1CSSC[C@H](NC(=O)[C@H](C)NC(=O)[C@H](C)NC(=O)[C@@H](N)CCCCN)C(=O)N[C@@H](C)C(=O)N[C@@H](C)C(=O)N[C@@H](Cc2cnc[nH]2)C(=O)N1)C(=O)N[C@@H](Cc1c[nH]c2ccccc12)C(=O)N[C@@H](CCCNC(=N)N)C(N)=O (H-KAACAAHCLWR-NH2; disulfide 4-8): 100 µg/mL
